Biological target: Ba/F3 cells expressing EGFR-C797S/T790M/Del19 (Homo sapiens, UniProt P00533, T790M/C797S, cells depend on it, form not given)
Sequence (P00533 with tags, fused parts or gaps DEL746-750/T790M/C797S, form open): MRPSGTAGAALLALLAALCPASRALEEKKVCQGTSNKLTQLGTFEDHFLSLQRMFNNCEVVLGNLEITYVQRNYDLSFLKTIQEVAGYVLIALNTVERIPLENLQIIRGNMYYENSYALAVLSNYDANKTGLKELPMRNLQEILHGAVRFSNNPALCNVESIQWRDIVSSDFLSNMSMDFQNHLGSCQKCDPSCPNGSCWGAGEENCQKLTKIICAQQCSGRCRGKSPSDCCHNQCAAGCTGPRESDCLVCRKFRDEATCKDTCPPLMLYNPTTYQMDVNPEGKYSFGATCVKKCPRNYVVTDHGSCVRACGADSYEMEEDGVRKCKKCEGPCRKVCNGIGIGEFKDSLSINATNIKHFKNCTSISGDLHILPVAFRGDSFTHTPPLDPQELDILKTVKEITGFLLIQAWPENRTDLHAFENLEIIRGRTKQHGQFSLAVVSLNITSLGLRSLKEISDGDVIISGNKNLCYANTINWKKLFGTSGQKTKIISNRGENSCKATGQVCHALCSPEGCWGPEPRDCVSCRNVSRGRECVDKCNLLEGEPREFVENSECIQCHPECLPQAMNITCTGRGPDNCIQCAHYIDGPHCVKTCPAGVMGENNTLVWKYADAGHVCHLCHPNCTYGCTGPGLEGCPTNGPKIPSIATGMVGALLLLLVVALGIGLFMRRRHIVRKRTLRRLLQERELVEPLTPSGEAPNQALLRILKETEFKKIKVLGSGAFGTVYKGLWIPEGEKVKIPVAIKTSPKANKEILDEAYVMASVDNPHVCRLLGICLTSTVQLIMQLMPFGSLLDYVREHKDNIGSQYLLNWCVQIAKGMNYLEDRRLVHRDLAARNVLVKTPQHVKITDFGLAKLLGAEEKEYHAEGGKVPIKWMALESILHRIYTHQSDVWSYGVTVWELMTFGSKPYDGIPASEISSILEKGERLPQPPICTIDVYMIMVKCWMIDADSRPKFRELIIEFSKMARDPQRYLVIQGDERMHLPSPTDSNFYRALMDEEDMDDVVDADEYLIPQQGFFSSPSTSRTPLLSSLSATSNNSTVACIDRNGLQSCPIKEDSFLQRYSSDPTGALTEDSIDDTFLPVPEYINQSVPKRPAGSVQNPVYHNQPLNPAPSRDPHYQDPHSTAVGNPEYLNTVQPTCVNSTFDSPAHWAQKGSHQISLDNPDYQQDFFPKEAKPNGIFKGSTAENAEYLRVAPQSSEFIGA
Assay: Cell anti-proliferation experiment 1, BaF3 cells expressing EGFR mutation (CellTiter-Glo)
Type: cell-based
Conditions: read-out: EGFR-C797S/T790M/Del19 IC50
parameter.measured: GI50 (nM)

COc1cc(N2CCC(N3CCN(C)CC3)CC2)ccc1Nc1ncc(Cl)c(Nc2ccc(C)cc2P(C)(C)=O)n1 [Control compound 3]: 192
COc1cc(N2CCC(N3CCN(C)CC3)CC2)c(C)cc1Nc1ncc(Cl)c(Nc2cccc(C)c2P(C)(C)=O)n1 [Control compound 1]: 180
COc1cc(N2CCC(N3CCN(C)CC3)CC2)c(C)cc1Nc1ncc(Br)c(Nc2ccc(C)cc2P(C)(C)=O)n1: 16.5
COc1cc(N2CCC(N3CCN(C)CC3)CC2)c(C)cc1Nc1ncc(Cl)c(Nc2ccccc2P(C)(C)=O)n1 [Control compound 2]: 221

---

Target: BaF3 cells expressing EML-4-ALK-L1196M (Homo sapiens, UniProt Q9UM73, L1196M, cells depend on it)
Construct: fused on or other part: Q9HC35 (Echinoderm microtubule-associated protein-like 4)
Sequence (Q9UM73 whole entry L1196M, the tested form may be a part): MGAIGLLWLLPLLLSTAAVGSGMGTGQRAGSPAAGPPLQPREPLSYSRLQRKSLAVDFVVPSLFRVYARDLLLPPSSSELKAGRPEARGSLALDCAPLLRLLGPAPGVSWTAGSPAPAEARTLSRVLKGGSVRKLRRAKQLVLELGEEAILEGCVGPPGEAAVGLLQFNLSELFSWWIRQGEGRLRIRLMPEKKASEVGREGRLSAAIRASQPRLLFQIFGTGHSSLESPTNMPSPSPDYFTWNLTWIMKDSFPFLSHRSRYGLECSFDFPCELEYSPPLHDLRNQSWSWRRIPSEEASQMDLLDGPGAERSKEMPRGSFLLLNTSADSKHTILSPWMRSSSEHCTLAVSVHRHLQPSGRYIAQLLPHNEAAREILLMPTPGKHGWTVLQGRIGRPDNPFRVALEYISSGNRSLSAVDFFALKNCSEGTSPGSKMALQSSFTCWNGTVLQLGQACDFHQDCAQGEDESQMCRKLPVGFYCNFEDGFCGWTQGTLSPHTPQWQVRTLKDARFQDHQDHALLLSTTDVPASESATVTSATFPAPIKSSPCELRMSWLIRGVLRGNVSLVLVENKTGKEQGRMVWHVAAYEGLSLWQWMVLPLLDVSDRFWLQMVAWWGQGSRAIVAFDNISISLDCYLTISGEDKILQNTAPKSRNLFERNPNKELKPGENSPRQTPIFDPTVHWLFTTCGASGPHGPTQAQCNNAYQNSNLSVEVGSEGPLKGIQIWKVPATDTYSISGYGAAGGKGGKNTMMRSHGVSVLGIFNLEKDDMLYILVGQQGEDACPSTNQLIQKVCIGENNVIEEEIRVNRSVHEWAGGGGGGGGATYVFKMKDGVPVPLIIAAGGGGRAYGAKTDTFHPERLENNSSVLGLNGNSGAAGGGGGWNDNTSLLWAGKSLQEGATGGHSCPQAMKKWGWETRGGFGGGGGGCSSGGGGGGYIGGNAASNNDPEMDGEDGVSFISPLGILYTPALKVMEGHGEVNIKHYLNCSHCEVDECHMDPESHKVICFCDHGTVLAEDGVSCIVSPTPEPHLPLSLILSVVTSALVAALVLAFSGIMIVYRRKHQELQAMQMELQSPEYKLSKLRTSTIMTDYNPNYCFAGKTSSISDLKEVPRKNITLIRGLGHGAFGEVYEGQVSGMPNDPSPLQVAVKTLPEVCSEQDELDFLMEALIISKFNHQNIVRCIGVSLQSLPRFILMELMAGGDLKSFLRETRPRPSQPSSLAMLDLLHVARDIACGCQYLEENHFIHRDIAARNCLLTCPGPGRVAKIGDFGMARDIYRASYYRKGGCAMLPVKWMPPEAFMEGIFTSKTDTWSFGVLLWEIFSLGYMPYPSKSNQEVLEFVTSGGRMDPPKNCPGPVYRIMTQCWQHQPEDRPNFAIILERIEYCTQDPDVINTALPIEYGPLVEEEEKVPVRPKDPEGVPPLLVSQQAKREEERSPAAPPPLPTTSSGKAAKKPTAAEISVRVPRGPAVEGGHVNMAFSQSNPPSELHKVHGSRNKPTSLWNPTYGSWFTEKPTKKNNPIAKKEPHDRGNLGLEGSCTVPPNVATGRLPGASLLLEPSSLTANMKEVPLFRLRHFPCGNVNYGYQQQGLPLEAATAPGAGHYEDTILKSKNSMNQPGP
Test: Cell anti-proliferation experiment 3, BaF3 cells with ALK fusion and mutation (CellTiter-Glo)
Assay type: cell-based
Conditions: 3 days, CTG, read-out: EML-4-ALK-L1196M IC50
parameter.measured: GI50 (µM)

COc1cc(N2CCC(N3CCN(C)CC3)CC2)c(C)cc1Nc1ncc(Cl)c(Nc2cccc(C)c2P(C)(C)=O)n1 [Control compound 1]: 0.065
COc1cc(N2CCC(N3CCN(C)CC3)CC2)c(C)cc1Nc1ncc(Br)c(Nc2ccc(C)cc2P(C)(C)=O)n1 [Compound DA]: 0.0131
COc1cc(N2CCC(N3CCN(C)CC3)CC2)ccc1Nc1ncc(Cl)c(Nc2ccc(C)cc2P(C)(C)=O)n1 [Control compound 3]: 0.0502
COc1cc(N2CCC(N3CCN(C)CC3)CC2)c(C)cc1Nc1ncc(Cl)c(Nc2ccccc2P(C)(C)=O)n1 [Control compound 2]: 0.0474

---

Target: Ba/F3 cells expressing EGFR-C797S/T790M/L858R (Homo sapiens, UniProt P00533, T790M/C797S/L858R, cells depend on it)
Sequence (P00533 whole entry T790M/C797S/L858R): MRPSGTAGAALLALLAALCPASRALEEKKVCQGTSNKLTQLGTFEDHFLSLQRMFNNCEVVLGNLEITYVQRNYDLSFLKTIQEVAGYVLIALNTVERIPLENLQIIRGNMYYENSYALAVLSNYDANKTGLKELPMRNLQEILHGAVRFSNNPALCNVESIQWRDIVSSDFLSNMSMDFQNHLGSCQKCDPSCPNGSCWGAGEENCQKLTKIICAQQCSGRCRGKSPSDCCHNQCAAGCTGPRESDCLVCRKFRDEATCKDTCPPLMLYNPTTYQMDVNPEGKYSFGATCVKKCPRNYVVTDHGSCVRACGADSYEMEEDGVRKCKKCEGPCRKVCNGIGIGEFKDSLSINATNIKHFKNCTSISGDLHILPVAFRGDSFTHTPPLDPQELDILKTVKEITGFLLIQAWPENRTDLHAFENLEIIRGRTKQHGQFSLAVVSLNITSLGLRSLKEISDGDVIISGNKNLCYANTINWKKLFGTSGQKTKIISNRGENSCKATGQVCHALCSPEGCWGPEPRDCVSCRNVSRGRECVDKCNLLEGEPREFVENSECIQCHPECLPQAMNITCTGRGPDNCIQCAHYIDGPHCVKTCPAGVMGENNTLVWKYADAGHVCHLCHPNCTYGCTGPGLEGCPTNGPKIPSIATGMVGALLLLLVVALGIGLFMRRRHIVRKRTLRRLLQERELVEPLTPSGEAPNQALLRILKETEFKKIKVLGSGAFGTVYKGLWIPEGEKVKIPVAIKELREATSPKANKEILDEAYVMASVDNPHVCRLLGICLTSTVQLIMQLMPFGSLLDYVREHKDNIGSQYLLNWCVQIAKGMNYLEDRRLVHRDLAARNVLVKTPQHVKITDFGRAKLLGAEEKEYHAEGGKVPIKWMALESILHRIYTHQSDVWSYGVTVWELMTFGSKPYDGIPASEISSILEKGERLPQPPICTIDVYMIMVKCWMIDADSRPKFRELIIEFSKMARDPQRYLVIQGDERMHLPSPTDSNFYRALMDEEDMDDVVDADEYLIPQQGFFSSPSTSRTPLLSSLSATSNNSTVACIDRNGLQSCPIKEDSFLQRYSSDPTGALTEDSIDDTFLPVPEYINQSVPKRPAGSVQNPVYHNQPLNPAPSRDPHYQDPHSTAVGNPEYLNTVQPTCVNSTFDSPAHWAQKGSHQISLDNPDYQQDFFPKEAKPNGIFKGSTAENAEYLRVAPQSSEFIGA
Experiment: Cell anti-proliferation experiment 1, BaF3 cells expressing EGFR mutation (CellTiter-Glo)
Format: cell-based
Conditions: read-out: EGFR-C797S/T790M/L858R IC50
parameter.measured: GI50 (nM)

COc1cc(N2CCC(N3CCN(C)CC3)CC2)c(C)cc1Nc1ncc(Cl)c(Nc2cccc(C)c2P(C)(C)=O)n1 [Control compound 1]: 626
COc1cc(N2CCC(N3CCN(C)CC3)CC2)c(C)cc1Nc1ncc(Br)c(Nc2ccc(C)cc2P(C)(C)=O)n1: 64.1
COc1cc(N2CCC(N3CCN(C)CC3)CC2)ccc1Nc1ncc(Cl)c(Nc2ccc(C)cc2P(C)(C)=O)n1 [Control compound 3]: 566
COc1cc(N2CCC(N3CCN(C)CC3)CC2)c(C)cc1Nc1ncc(Cl)c(Nc2ccccc2P(C)(C)=O)n1 [Control compound 2]: 583

---

Target: BaF3 cells expressing EML-4-ALK-WT (Homo sapiens)
Construct: fused on or other part: Q9HC35 (Echinoderm microtubule-associated protein-like 4)
Sequence (Q9UM73 whole entry, change not shown, the tested form may be a part): as the sequence (Q9UM73 whole entry L1196M, the tested form may be a part) above, with M1196L counted along it
Test: Cell anti-proliferation experiment 3, BaF3 cells with ALK fusion (CellTiter-Glo)
Format: cell-based
Conditions: 3 days, CTG, read-out: EML-4-ALK-WT IC50
parameter.measured: GI50 (nM)

COc1cc(N2CCC(N3CCN(C)CC3)CC2)ccc1Nc1ncc(Cl)c(Nc2ccc(C)cc2P(C)(C)=O)n1 [Control compound 3]: 39.4
COc1cc(N2CCC(N3CCN(C)CC3)CC2)c(C)cc1Nc1ncc(Cl)c(Nc2cccc(C)c2P(C)(C)=O)n1 [Control compound 1]: 34.1
COc1cc(N2CCC(N3CCN(C)CC3)CC2)c(C)cc1Nc1ncc(Br)c(Nc2ccc(C)cc2P(C)(C)=O)n1 [Compound DA]: 8
COc1cc(N2CCC(N3CCN(C)CC3)CC2)c(C)cc1Nc1ncc(Cl)c(Nc2ccccc2P(C)(C)=O)n1 [Control compound 2]: 43.6
